- study target: human polymorphonuclear leukocyte elastase (Homo sapiens)
- Construct: Crude extract of human polymorphonuclear leukocytes (PMN) containing elastase activity; endogenous in cells; host or cells: human polymorphonuclear leukocytes (crude extract)
- Sequence (P08246 30-247 limits assumed): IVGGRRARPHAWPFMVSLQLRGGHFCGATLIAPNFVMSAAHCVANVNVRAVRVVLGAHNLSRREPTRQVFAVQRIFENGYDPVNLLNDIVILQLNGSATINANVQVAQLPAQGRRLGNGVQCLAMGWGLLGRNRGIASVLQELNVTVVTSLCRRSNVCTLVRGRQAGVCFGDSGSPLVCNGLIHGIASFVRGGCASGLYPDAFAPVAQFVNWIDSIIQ
- measurement description: Inhibition of human polymorphonuclear leukocyte (granulocyte) elastase via hydrolysis of Boc-AAPAN or Boc-AAPVN
- Assay type: biochemical
- setup conditions: pH 7.5, Table II, (per mole per second); read-out: kobs/I, second order rate constant of inactivation of the enzyme
Field: kinact/KI. Provide a value for each of the molecules that follow.

stdin: GET /values?readout=kinact/KI&item= CCC1(CC)C(=O)N(C(=O)NCc2ccc(Cl)cc2)C1Oc1ccc(C(=O)O)cc1 (stereo not shown)
stdout: 3420 M⁻¹ s⁻¹

stdin: kinact/KI lookup needed for CCC1C(=O)N(C(=O)Nc2ccc(C(=O)O)cc2)C1Oc1ccc(C(=O)O)cc1 (stereo not shown) , thanks.
stdout: 13600 M⁻¹ s⁻¹

stdin: Could you tell me which kinact/KI is on file for CCCC1C(=O)N(C(=O)NCc2ccccc2)C1Oc1ccc(C(=O)O)cc1 (stereo not shown) [Table II: C3 H7; H; O-(4-COOHPh); CH2 Ph] ?
stdout: 5000 M⁻¹ s⁻¹

stdin: Which kinact/KI is reported for this molecule? CCCC(NC(=O)N1C(=O)C(CC)(COC)C1Oc1ccc(C(=O)O)cc1)c1ccccc1 (stereo not shown)
stdout: 75000 M⁻¹ s⁻¹

stdin: Which measured kinact/KI value corresponds to CCC1(CC)C(=O)N(C(=O)NCCCCC(O)c2ccccc2)C1Oc1ccc(C(=O)O)cc1 (stereo not shown) ?
stdout: 4200 M⁻¹ s⁻¹

stdin: So what's the measured kinact/KI for this one? CCC1(CC)C(=O)N(C(=O)NCc2ccccc2)C1Oc1ccc2cc(C(=O)O)ccc2c1 (stereo not shown)
stdout: 5560 M⁻¹ s⁻¹

stdin: Item CCC1C(=O)N(C(=O)NCc2ccccc2)C1Oc1ccc(C(=O)O)cc1 (stereo not shown) [Table II: C2 H5; H; O-(4-COOHPh); CH2 Ph] has what recorded kinact/KI?
stdout: 4000 M⁻¹ s⁻¹

stdin: Entry CCC1(CC)C(=O)N(C(=O)NCc2ccc(C(C)=O)cc2)C1Oc1ccc(C(C)=O)cc1 (stereo not shown) has what kinact/KI?
stdout: 5920 M⁻¹ s⁻¹

stdin: Please report the recorded kinact/KI for CCC1(CC)C(=O)N(C(=O)NCc2ccc(C(=O)NS(=O)(=O)c3ccc(Cl)cc3)cc2)C1Oc1ccc(C(=O)O)cc1 (stereo not shown) .
stdout: 1730 M⁻¹ s⁻¹

stdin: # lookup: kinact/KI of CCC1(COC)C(=O)N(C(=O)NCc2ccc3c(c2)OCO3)C1Oc1ccc(C(=O)O)cc1 (stereo not shown)
stdout: 17000 M⁻¹ s⁻¹

stdin: Returns the measured kinact/KI for the input molecule. Input: CCC1(CC)C(=O)N(C(=O)NCC2CCCCC2)C1Oc1ccc(C(=O)O)cc1 (stereo not shown)
stdout: 1420 M⁻¹ s⁻¹

stdin: Returns the measured kinact/KI for the input molecule. Input: C=CCC1C(=O)N(C(=O)NCc2ccccc2)C1Oc1ccc(C(=O)O)cc1 (stereo not shown)
stdout: 5400 M⁻¹ s⁻¹

stdin: Using the record for CCC1(CC)C(=O)N(C(=O)NCc2ccc(Oc3ccccc3)cc2)C1Oc1ccc(C(=O)O)cc1 (stereo not shown) , report its kinact/KI.
stdout: 12000 M⁻¹ s⁻¹

stdin: I am curious: what kinact/KI value has been reported for CCCC1(CC)C(=O)N(C(=O)NCc2cccc(C(F)(F)F)c2)C1Oc1ccc(C(=O)O)cc1 (stereo not shown) ?
stdout: 55000 M⁻¹ s⁻¹

stdin: What kinact/KI value was documented for this molecule, CCC1(CC)C(=O)N(C(=O)NCc2ccccc2)C1Oc1cccc(C(=O)O)c1 (stereo not shown) ?
stdout: 1760 M⁻¹ s⁻¹

stdin: Entry CCC1C(=O)N(C(=O)NCc2ccccc2)C1c1ccc(C(=O)O)cc1 (stereo not shown) [Table II: C2 H5; H; Ph-4-COOH; CH2 Ph] has what kinact/KI?
stdout: 900 M⁻¹ s⁻¹

stdin: Given the entry CCC1(CC)C(=O)N(C(=O)NCc2cc3ccccc3o2)C1Oc1ccc(C(=O)O)cc1 (stereo not shown) , report its measured kinact/KI.
stdout: 13200 M⁻¹ s⁻¹

stdin: What value of kinact/KI has been recorded for this entry: CCCC1(CCC)C(=O)N(C(=O)NCc2ccccc2)C1Oc1ccc(C(=O)O)cc1 (stereo not shown)
stdout: 2500 M⁻¹ s⁻¹

stdin: Which kinact/KI reading was recorded for the molecule CCC1(C)C(=O)N(C(=O)NCC(C)c2ccccc2)C1Oc1ccc(C(=O)O)cc1 (stereo not shown) ?
stdout: 2550 M⁻¹ s⁻¹
